pIC50: −log10 of the molar value.
As a worked illustration, we turn to pIC50 data collected for full-length MALT1 protein His-MALT1(1-824) (Homo sapiens).
outcome measure: pIC50

C[C@@]1(c2ccn(C(F)F)n2)C[C@H](C(=O)Nc2cnc(-c3ncccn3)c(C(F)(F)F)c2)c2cnc3cc(F)nn3c21 (single isomer, unassigned) [Example 138] = 6.00 to 7.00
CC(F)(F)n1ccc([C@]2(C)C[C@@H](C(=O)Nc3cnc(-c4ncccn4)c(C(F)(F)F)c3)c3cnc4cc(F)nn4c32)n1 (single isomer, unassigned) [Example 165] = ≤ 6.00
Cn1cc([C@]2(C)C[C@@H](C(=O)Nc3cnc(OC(F)(F)F)c(C#N)c3)c3cnc4cc(F)nn4c32)cn1 (single isomer, unassigned) [Example 53] = ≤ 6.00
Cn1nccc1[C@]1(C)C[C@H](C(=O)Nc2cnc(-n3nccn3)c(Cl)c2)c2cnc3cc(F)nn3c21 (single isomer, unassigned) [Example 66] = 6.00 to 7.00
Cn1cc([C@@]2(C)C[C@@H](C(=O)Nc3cnc(-n4nccn4)c(Cl)c3)c3cnc4c(Cl)c(F)nn4c32)cn1 (single isomer, unassigned) [Example 19] = ≤ 6.00
C[C@@]1(c2cnn(C(F)(F)F)c2)C[C@@H](C(=O)Nc2cnc(-n3nccn3)c(Cl)c2)c2cnc3cc(F)nn3c21 (single isomer, unassigned) [Example 103] = ≤ 6.00
C[C@@]1(c2cnn(C(F)F)c2)C[C@@H](C(=O)Nc2cnc(-c3ncncc3F)c(Cl)c2)c2cnc3cc(F)nn3c21 (single isomer, unassigned) [Example 157] = ≤ 6.00
Cn1cc([C@]2(C)C[C@@H](C(=O)Nc3ccnc(C(F)(F)F)c3)c3cnc4cc(Cl)nn4c32)cn1 (single isomer, unassigned) [Example 45] = ≤ 6.00
C[C@]1(c2cnn(CC3CC3)c2)C[C@@H](C(=O)Nc2cnc(-n3nccn3)c(Cl)c2)c2cnc3cc(F)nn3c21 (single isomer, unassigned) [Example 101] = 6.00 to 7.00
C[C@@]1(c2ccn(C(F)F)n2)C[C@@H](C(=O)Nc2cnc(OC(F)F)c(C#N)c2)c2cnc3cc(F)nn3c21 (single isomer, unassigned) [Example 111] = ≤ 6.00
Cn1ccc([C@]2(C)C[C@@H](C(=O)Nc3cnc(OC(F)F)c(C#N)c3)c3cnc4cc(F)nn4c32)n1 (single isomer, unassigned) [Example 69] = ≤ 6.00

---

As a worked illustration, we turn to IC50 data collected for full-length MALT1 protein His-MALT1(1-824) (Homo sapiens).
outcome measure: IC50

C[C@@]1(c2ccn(C(F)F)n2)C[C@H](C(=O)Nc2cnc(OC(F)F)c(C#N)c2)c2cnc3cc(F)nn3c21 (single isomer, unassigned) [Example 112] = 100 to 1000 nM
Cc1cc(NC(=O)[C@H]2C[C@@](C)(c3cnn(C)c3)c3c2cnc2cc(F)nn32)cnc1-n1nccn1 (single isomer, unassigned) [Example 58] = ≥ 1000 nM
C[C@@]1(c2cnn(C(F)F)c2)C[C@@H](C(=O)Nc2cnc(-c3ncncc3F)c(C(F)(F)F)c2)c2cnc3cc(F)nn3c21 (single isomer, unassigned) [Example 119] = ≥ 1000 nM
Cn1ccc([C@@]2(C)C[C@@H](C(=O)Nc3cnc(OC(F)F)c(C#N)c3)c3cnc4cc(F)nn4c32)n1 (single isomer, unassigned) [Example 71] = ≥ 1000 nM
C[C@@]1(c2cnn(C3CC3)c2)C[C@@H](C(=O)Nc2cnc(OC(F)F)c(C#N)c2)c2cnc3cc(F)nn3c21 (single isomer, unassigned) [Example 73] = ≥ 1000 nM
C[C@]1(c2cnn(C3CC3)c2)C[C@H](C(=O)Nc2cnc(-n3nccn3)c(Cl)c2)c2cnc3cc(F)nn3c21 (single isomer, unassigned) [Example 28] = < 10 nM
C[C@]1(c2ccn(C(F)F)n2)C[C@H](C(=O)Nc2cnc(-c3ncccn3)c(Cl)c2)c2cnc3cc(F)nn3c21 (single isomer, unassigned) [Example 140] = < 10 nM
COc1cc(NC(=O)[C@H]2C[C@@](C)(c3ccn(C(F)F)n3)c3c2cnc2cc(F)nn32)cnc1-c1ncccn1 (single isomer, unassigned) [Example 181] = ≥ 1000 nM
Cn1cc([C@@]2(C)C[C@H](C(=O)Nc3cnc(-n4nccn4)c(Cl)c3)c3cnc4cc(F)nn4c32)cn1 (single isomer, unassigned) [Example 1] = < 10 nM
C[C@@]1(c2ccn(C(F)F)n2)C[C@@H](C(=O)Nc2cnc(-c3ncccn3)c(C(F)(F)F)c2)c2cnc3cc(F)nn3c21 (single isomer, unassigned) [Example 137] = ≥ 1000 nM
C[C@@]1(c2ccn(C3CC3)n2)C[C@H](C(=O)Nc2cnc(-n3nccn3)c(Cl)c2)c2cnc3cc(F)nn3c21 (single isomer, unassigned) [Example 154] = 100 to 1000 nM

---

molecular target: full-length MALT1 protein His-MALT1(1-824) (Homo sapiens)
pIC50: −log10 of the molar value.
outcome measure: pIC50

C[C@@]1(c2cnn(C3CC3)c2)C[C@H](C(=O)Nc2cnc(-n3nccn3)c(Cl)c2)c2cnc3cc(F)nn3c21 (single isomer, unassigned) [Example 30] = 7.00 to 8.00
C[C@@]1(c2cnn(C(F)F)c2)C[C@H](C(=O)Nc2cnc(-n3nccn3)c(C(F)(F)F)c2)c2cnc3cc(F)nn3c21 (single isomer, unassigned) [Example 82] = 7.00 to 8.00
Cn1cc([C@@]2(C)C[C@@H](C(=O)Nc3ccnc(C(F)(F)F)c3)c3cnc4cc(Cl)nn4c32)cn1 (single isomer, unassigned) [Example 47] = ≤ 6.00
C[C@@]1(c2cnn(C3CC3)c2)C[C@H](C(=O)Nc2cnc(OC(F)F)c(C#N)c2)c2cnc3cc(F)nn3c21 (single isomer, unassigned) [Example 74] = 7.00 to 8.00
C[C@]1(c2cnn(C(F)(F)F)c2)C[C@@H](C(=O)Nc2cnc(-n3nccn3)c(Cl)c2)c2cnc3cc(F)nn3c21 (single isomer, unassigned) [Example 105] = 6.00 to 7.00
C[C@]1(c2cnn(C(F)F)c2)C[C@H](C(=O)Nc2cnc(OC(F)F)c(C#N)c2)c2cnc3cc(F)nn3c21 (single isomer, unassigned) [Example 92] = > 8.00
CCn1cc([C@]2(C)C[C@@H](C(=O)Nc3cnc(-n4nccn4)c(Cl)c3)c3cnc4cc(F)nn4c32)cn1 (single isomer, unassigned) [Example 21] = ≤ 6.00
Cn1cc([C@]2(C)C[C@@H](C(=O)Nc3cnc(OC(F)F)c(C#N)c3)c3cnc4cc(F)nn4c32)cn1 (single isomer, unassigned) [Example 41] = ≤ 6.00
CC(C)n1cc([C@@]2(C)C[C@H](C(=O)Nc3cnc(-n4nccn4)c(Cl)c3)c3cnc4cc(F)nn4c32)cn1 (single isomer, unassigned) [Example 48] = > 8.00
CC1(c2cnn(C(F)F)c2)CC(C(=O)Nc2cnc(-c3ncc(F)cn3)c(Cl)c2)c2cnc3cc(F)nn3c21 (single isomer, unassigned) [Example 135] = 6.00 to 7.00
C[C@]1(c2cnn(C3CC3)c2)C[C@@H](C(=O)Nc2cnc(OC(F)F)c(C#N)c2)c2cnc3cc(F)nn3c21 (single isomer, unassigned) [Example 75] = 6.00 to 7.00

---

Biological target: full-length MALT1 protein His-MALT1(1-824) (Homo sapiens, UniProt Q9UDY8)
Sequence (Q9UDY8 1-824): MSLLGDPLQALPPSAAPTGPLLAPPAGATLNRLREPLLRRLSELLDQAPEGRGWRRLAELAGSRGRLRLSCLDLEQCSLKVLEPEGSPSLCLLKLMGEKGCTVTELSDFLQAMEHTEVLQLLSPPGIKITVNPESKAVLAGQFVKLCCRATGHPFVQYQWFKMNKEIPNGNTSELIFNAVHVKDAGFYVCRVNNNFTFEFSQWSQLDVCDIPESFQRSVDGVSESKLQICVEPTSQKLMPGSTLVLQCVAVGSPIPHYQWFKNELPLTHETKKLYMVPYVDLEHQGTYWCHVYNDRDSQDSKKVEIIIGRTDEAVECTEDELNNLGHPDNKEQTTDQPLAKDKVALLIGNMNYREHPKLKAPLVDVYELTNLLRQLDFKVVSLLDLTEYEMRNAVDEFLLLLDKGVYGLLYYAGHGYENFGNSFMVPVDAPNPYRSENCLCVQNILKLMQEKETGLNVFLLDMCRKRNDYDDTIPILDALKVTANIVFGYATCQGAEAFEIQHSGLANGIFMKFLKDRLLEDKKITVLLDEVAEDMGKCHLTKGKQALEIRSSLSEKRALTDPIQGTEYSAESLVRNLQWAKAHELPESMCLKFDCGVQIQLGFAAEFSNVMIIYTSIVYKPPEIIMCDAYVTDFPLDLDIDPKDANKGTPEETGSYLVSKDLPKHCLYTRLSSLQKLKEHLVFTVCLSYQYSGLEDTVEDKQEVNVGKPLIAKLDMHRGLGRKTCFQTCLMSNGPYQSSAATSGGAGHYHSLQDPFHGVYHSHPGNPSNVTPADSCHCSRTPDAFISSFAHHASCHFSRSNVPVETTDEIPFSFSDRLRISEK
pIC50: −log10 of the molar value.
The molecules listed here are annotated with their pIC50.
outcome measure: pIC50

CC(F)(F)n1ccc([C@@]2(C)C[C@@H](C(=O)Nc3cnc(-c4ncccn4)c(C(F)(F)F)c3)c3cnc4cc(F)nn4c32)n1 (single isomer, unassigned) = 6.00 to 7.00
CC1(c2cnn(C(F)F)c2)CC(C(=O)Nc2cnc(N=S3(=O)CCC3)c(Cl)c2)c2cnc3cc(F)nn3c21 (single isomer, unassigned) = 7.00 to 8.00
C[C@@]1(c2cnn(C(F)F)c2)C[C@@H](C(=O)Nc2cnc(-n3nccn3)c(C(F)(F)F)c2)c2cnc3cc(F)nn3c21 (single isomer, unassigned) = ≤ 6.00
CC(F)(F)n1ccc([C@]2(C)C[C@H](C(=O)Nc3cnc(-c4ncccn4)c(C(F)(F)F)c3)c3cnc4cc(F)nn4c32)n1 (single isomer, unassigned) = 6.00 to 7.00
C[C@]1(c2ccn(C(F)F)n2)C[C@H](C(=O)Nc2cnc(-c3ncccn3)c(C(F)(F)F)c2)c2cnc3cc(Cl)nn3c21 (single isomer, unassigned) = > 8.00
C[C@]1(c2cnn(C(F)(F)F)c2)C[C@H](C(=O)Nc2cnc(-n3nccn3)c(Cl)c2)c2cnc3cc(F)nn3c21 (single isomer, unassigned) = 7.00 to 8.00
COc1cc(NC(=O)[C@@H]2C[C@@](C)(c3ccn(C(F)F)n3)c3c2cnc2cc(F)nn32)cnc1-c1ncccn1 (single isomer, unassigned) = 6.00 to 7.00
C[C@@]1(c2ccn(C(F)F)n2)C[C@@H](C(=O)Nc2ccc(-c3ncccn3)c(Cl)c2)c2cnc3cc(F)nn3c21 (single isomer, unassigned) = ≤ 6.00
C[C@@]1(c2cnn(C(F)F)c2)C[C@@H](C(=O)Nc2cnc(-n3nccn3)c(Cl)c2)c2cnc3cc(F)nn3c21 (single isomer, unassigned) = ≤ 6.00
CC(F)(F)n1ccc([C@@]2(C)C[C@H](C(=O)Nc3cnc(-c4ncccn4)c(C(F)(F)F)c3)c3cnc4cc(F)nn4c32)n1 (single isomer, unassigned) = > 8.00
C[C@]1(c2ccn(C(F)F)n2)C[C@H](C(=O)Nc2cnc(-n3nccn3)c(C(F)(F)F)c2)c2cnc3cc(F)nn3c21 (single isomer, unassigned) = > 8.00
Cn1nccc1[C@@]1(C)C[C@@H](C(=O)Nc2cnc(-n3nccn3)c(Cl)c2)c2cnc3cc(F)nn3c21 (single isomer, unassigned) = ≤ 6.00
